For each of the compounds below, state its IC50.
Biological target: MAPK14 (human) (UniProt Q16539)
Sequence (Q16539 whole entry, looked up): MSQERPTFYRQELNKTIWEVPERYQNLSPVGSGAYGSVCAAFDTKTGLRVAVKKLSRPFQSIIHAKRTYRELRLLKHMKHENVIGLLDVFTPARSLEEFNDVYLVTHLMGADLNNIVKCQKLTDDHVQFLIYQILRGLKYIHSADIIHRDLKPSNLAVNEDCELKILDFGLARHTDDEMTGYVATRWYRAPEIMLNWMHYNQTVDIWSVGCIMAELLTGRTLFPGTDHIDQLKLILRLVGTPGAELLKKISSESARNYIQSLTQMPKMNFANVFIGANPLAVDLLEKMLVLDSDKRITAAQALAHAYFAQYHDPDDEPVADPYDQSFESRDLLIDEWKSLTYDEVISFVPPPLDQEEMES
Assay: p38 --- IL-1 Inhibition (PBMC cells)
Give bare numbers, in nM.

| Smiles Repr | IC50, nM |
| --- | --- |
| Cc1ccc(Sc2ccc3c(-c4c(Cl)cccc4Cl)c(=O)ncn3n2)cc1 | 350 |

Inquiry: Note IC50 for the compound shown: Cc1cccc(Sc2ccc3c(-c4c(Cl)cccc4Cl)c(=O)ncn3n2)c1
Reply text: 210

###

Biological target: EGFR (human)
Parameter: Ki (nM)
Give bare numbers, in nM.

Inquiry: Report Ki on EGFR (human) for this entry: COc1cc2ncc(C#N)c(Nc3cccc(C)c3)c2cc1OC
Reply text: 44
